- Tested on: K4 kissing-loop RNA reporter
- test-name: apparent KD of K4 kissing-loop reporter; higher = weaker reporter binding
- conditions-used: Eterna round: R107; input ligand: tryptophan 2.4 mM
apparent KD of K4 kissing-loop reporter values by entry
# do not omit the unit; it follows the number

AACCACUCGUUACAUCACUAUCGAGUGGAACGAGGACCGGUACGGCCGCCACUCGAAUAGAUGCAGUGAUGUUGCAUCUUGGAAU [KL-SSTryp-A (BrourdMod)4 #dotplot2 strengthened] = 132 nM

Here is another sequence to look at.
Q: Look up and report measured apparent KD of K4 kissing-loop reporter for this entry: AAUUUAUUAACUGAUACCAGACUAAUUUUAUUUAUUAAGUCAAGUGAUGUUUGACUUUAUGUCCCUUGGCAGCAGAAUUAAUUAA [JR_SSTheophyB_Sub019]
Ans: 128 nM

* * *

- Tested on: K4 kissing-loop RNA reporter;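 also: bound reporter read as fluorescence of individual clusters on recovered sequencing chips by microscopy, with normalized cluster intensities fitted with a binding model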
- test-name: apparent KD of K4 kissing-loop reporter; higher = weaker reporter binding
- conditions-used: Eterna round: R107; input ligand: arginine 13.2 mM
apparent KD of K4 kissing-loop reporter values by entry
Your answer should be a plain number; it is taken to be in nM.

UCUAAGGUCGAACCGGUAUGAUCACCGGAUACCAGAGGCGAAAGCCUCCCUUGGCAGCCGAGUGUAGUGAUGUUACACGGGUUCU = 147
GUAUCGCUAGGAGGAUAUUCCAUUUUACAUAGAAAUGGCUAUGCGGAGUGAUGUUCCGAUUUACGGGAAGAAGGCCUAGUGAUAC [FMN B 21] = 119
AUAAUUAUGACGGCCGCCACUGAGAGUAGUGAUGUUACUCUUUUCCUUUAGUAAUAAUUUUUUAUCAGGACCGGGUUAUUUGAAU [JR_Nu_ExcTryptoB_Sub027] = 67.2
GGGUGGCAGGCGGCCGCCACUCUGAGCAGCCAGUGAGUGAUGUUCGUGGCGGAAGAAUGUUCGUAGAGGACCGGGUUUGUUGUUC [Same State Tryptophan B GF 22] = 245
AACUCUCACUGGAGUGAUGUUCUGGAAAACCGAGGACCGGUACGGCCGCCACUCGGAAAUGAGAGAGUCCUACGAAAAGUAGGAC [Omei inspired 1] = 213

Q: Give apparent KD of K4 kissing-loop reporter only, for AUGUCGUUAUAGUGAGUGAUGUUCACUGUGCGAGGACCGGUACGGCCGCCACUCGAGAGUGGUGGACACUGAGUCACUCUGACAC [Tryp A Ex t2] , using K4 kissing-loop RNA reporter data.
Ans: 123

* * *

- Tested on: MS2 coat protein
- test-name: apparent KD of MS2 coat protein; designed switch direction (-1 OFF switch, 1 ON switch): 1; higher = weaker reporter binding
- conditions-used: input ligand: microRNA oligo, concentration not stated
Grouping rule (apparent KD of MS2 coat protein): bottom range: < 20 nM; center range: ≥ 20 nM and < 300 nM; top range: ≥ 300 nM

Example cases with answers are listed next.
ACAUGAGACAUAGGAUAUCUUGUACCUACAUGUGACAUGAGGAUCACCCAUGUGGUAAGUAUGAGAGAGAAGGAUGAGAUAUGU [Equivalence 48 - Jieux - Same State NG 2] (Eterna round: R96, puzzle: Same State NG 2) = bottom range
GCUCGAUGAAAGUCCUACAUGAGGAUCACCCAUGUACGUGGGCAGGAUAUCUACAUGCAGAGUGUAGAGAAGGGCCCAUCGAGC [SameState NG3 #60] (Eterna round: R96, puzzle: Same State NG 3) = center range
GGAAACAAGAGAGGAUAUGCAGAGGAUCACCCUGUAGAAGGCUCCCUAGAGAGGAUAUGCAGAGGAUCACCCUGCAGAAGGCUC [pwkr ssNG DX.18] (Eterna round: R96, puzzle: Same State NG 1) = center range
GAGGGACAGACCAACAUGAGGAUCACCCAUGUCCUCGCUGGUCAGGAUAUCCCGCCAACAGGCGAGGAGAAGGGACGGUGAACC (Eterna round: R96, puzzle: Same State NG 3) = top range
CUCGUAUCGGGAGGAUAUGGUGCCUUGUUGGUGCUAGAAGGUCCAACAUGAGGAUCACCCAUGUGCGAGUGGUUGAGAGACCGG [SS NG10LRO15] (Eterna round: R96, puzzle: Same State NG 1) = center range

Q: Lab note: sort GCUGGAAACCACAUGAGGAUCACCCAUGUUCCGGAAACGGCACAGGAUAUCUGUCCGAAAAGGUCAGAGAAGGGUGGAACCAGC [Fiskers NG3ss - 82] (Eterna round: R96, puzzle: Same State NG 3) into the matching apparent KD of MS2 coat protein band.
Ans: top range

Q: Lab note: sort UAAGGACAUGAGGAUCACCCAUGUGCUUCAUAUGGAGAAUCUCAGGAUAUGCUGAGGAUCACCCAGCAGAAGGGAGAUCCGAGG (Eterna round: R96, puzzle: Same State NG 3) into the matching apparent KD of MS2 coat protein band.
Ans: center range

Q: Lab note: sort AAGUGGAACUGAGGAUAUGGCAUCCGAACAUGAGGAUCACCCAUGUAGUUAGGAAAAGAACGGAGCCAGAAGGUAGGACUCCGC [Soqube] (Eterna round: R96, puzzle: Same State NG 2) into the matching apparent KD of MS2 coat protein band.
Ans: bottom range

* * *

- Test system: MS2 coat protein
- test-name: apparent KD of MS2 coat protein; designed switch direction (-1 OFF switch, 1 ON switch): -1; higher = weaker reporter binding
- conditions-used: Eterna round: R95; input ligand: microRNA oligo, concentration not stated
apparent KD of MS2 coat protein values by entry
Your answer should be a plain number; it is taken to be in nM.

Solved cases (5 shown):
UACUACGCAGGAUAUACAUGAGGAUCACCCAUGUGUCUGCGAUAGGCACGUGAUAUCCGUAGAAGGGUGUAGAU [Exclusion 3 - Oddities v.1] (puzzle: Exclusion 3) = 30.7
CAGGUGUUAGGAUAUCGGAGAUUGAGGCAGACGGGAAUAUUCGAGAAGGAACAUGAGGAUCACCCAUGUAGUAG [JR_Exclu4_Sub036] (puzzle: Exclusion 4) = 23.9
CCUCUACAUGAGGAUCACCCAUGUGAGGAUAUAAGAUUGCGAAUUCCGCACUACGGUCUUAGAAGGCGCGUGGA [Riarve] (puzzle: Exclusion 1) = 15.7
AAGAAACAUGAGGAUCACCCAUGUGAGGAUAUGUAAAAGAAAAUAAAAUAAAGAAGAAACAGAAGGCACAAAGG [Mat - Mod of Hog D20] (puzzle: Exclusion 1) = 43.4
GAUCAACAUGAGGAUCACCCAUGUGAGGAUAUGAUACUAUGUACUUCGGUACAUAGUAUCAGAAGGCAUAUGAA [Ex1-3: 36] (puzzle: Exclusion 1) = 52

Here is another sequence to look at.
Q: Give apparent KD of MS2 coat protein only, for GAUUAUGCGAGCUUUAGGGACAUGAGGAUCACCCAUGUUCGUCUUAUUAAUCUAGGUGCACUAACAUACCUAAAUCU [JMF 32] (puzzle: Sensor v3, turn-off variant 1) , using MS2 coat protein data.
Ans: 39.4

* * *

- Test system: MS2 coat protein
- test-name: apparent KD of MS2 coat protein; designed switch direction (-1 OFF switch, 1 ON switch): -1; higher = weaker reporter binding
- conditions-used: input ligand: none
apparent KD of MS2 coat protein values by entry
Your answer should be a plain number; it is taken to be in nM.

Solved cases (5 shown):
AAGAAACAUGAGGAUCACCCAUGUGAGGAUAUGGCCCGCCCGGCGUGAGCUGGUUUUAUCAGAAGGCACAAAGG [salish99_ex1_r4_015] (Eterna round: R97, puzzle: Exclusion 1) = 44.6
AGCUAGAUAGGAUAUGCCCGGGAUAACAUGAGGAUCACCCAUGUGGCCGAAUCAAAUCCAGCAGAAGGGUUUGGGA [Mod of ViennaUCT 12 - Jieux - Exclusion 5] (Eterna round: R97, puzzle: Exclusion 5) = 38.7
GGGUGCAGGCUAAGAUCCUACAUGAGGAUCACCCAUGUGGUCCGGUGACGUGAGUCACCGGACUUAGCUCGUCUUGU [salish99_S_TOV1_R5_006] (Eterna round: R97, puzzle: Sensor, turn-off variant 1) = 142
GGCAUGUAAGGAUAUGUGAAGGGAAGGAGAGGGAGAGGGAAGCAGAAGGUACAUGAGGAUCACCCAUGUAAGGG [AK-MS2ROC-r4-exclusion4-5.1] (Eterna round: R97, puzzle: Exclusion 4) = 108
AAUUAGCAAGCGAGAUCUCACAUGAGGAUCACCCAUGUGCUCGUCUUAUAAGGUACUGUGACGAAAGUCACGGUACC [Mat - Sensor, turn-off var - Eli Mod - D40] (Eterna round: R97, puzzle: Sensor, turn-off variant 1) = 15.8

Q: Look up and report measured apparent KD of MS2 coat protein for this entry: AAUCAACAUGAGGAUCACCCAUGUGAGGAUAUACGCAUGCAUGCAUGCAUGCAUGCAAGUAGAAGGCACAAUAC [Design #17] (Eterna round: R97, puzzle: Exclusion 1)
Ans: 27.9

Q: Look up and report measured apparent KD of MS2 coat protein for this entry: AUUUUGAAUGUAAGGAUAUCAAUACGAGGGCGUGAUGAGAAGGUACAUGAGGAUCACCCAUGUGGCGAGCUCAC [BmEX4 B.24] (Eterna round: R97, puzzle: Brourd's mod of Exclusion 4)
Ans: 23.7

Q: Look up and report measured apparent KD of MS2 coat protein for this entry: AGUCAAACGGUAGGAUAUCCAUAUCGAGUGACCCUUUCAUAACAUGAGGAUCACCCAUGUCGGUGGGAGAAGGGCCGUAAGGCA [Mat - Exclusion NG 2 - Mod of JL - D70] (Eterna round: R96, puzzle: Exclusion NG 2)
Ans: 52.4

Q: Look up and report measured apparent KD of MS2 coat protein for this entry: CCGUCCCGCCCUGGGUGGGACAUGAGGAUCACCCAUGUGGGUUUUCUUUCUUUCACCCGGGCGGGCGGGCGGGCUGG [sensor,turn-off variant1(1)] (Eterna round: R97, puzzle: Sensor, turn-off variant 1)
Ans: 54.8
